system: Drechslera; assay: Antimicrobial activity against Drechslera sorokiniana at 27 to 28 degC after 48 hrs in dark; type: functional
result type: MIC (µM)

Look over these answered cases.
- compound: "C[C@@H]1[C@H](O)[C@@H](C)/C=C/C=C/C=C/C=C/C=C/C=C/C=C/[C@H](O[C@@H]2O[C@H](C)[C@@H](O)[C@H](N)[C@@H]2O)C[C@@H]2O[C@](O)(C[C@@H](O)C[C@@H](O)[C@H](O)CC[C@@H](O)C[C@@H](O)CC(=O)O[C@H]1C)C[C@H](O)[C@H]2C(=O)O [AMPHOTERICIN B]"
  measure unit: "µM"
  MIC: 4
- compound: "COC[C@@H]1NC(=O)[C@@H]2CCCNN2C(=O)[C@H](C(C)(C)C)OC(=O)[C@@H](C2(C)CC2)NC(=O)[C@@H]2C[C@@]3(O)c4ccc(Cl)c(Cl)c4N[C@H]3N2C(=O)[C@@H]([C@H](O)CC(=O)O)NC1=O [KUTZNERIDE 3]"
  measure unit: "µM"
  MIC: 260
- compound: "COC[C@@H]1NC(=O)[C@@H]2C[C@@H](Cl)CNN2C(=O)[C@H](C(C)(C)C)OC(=O)[C@@H](C2(C)CC2)NC(=O)[C@@H]2C[C@@]3(O)c4ccc(Cl)c(Cl)c4N[C@H]3N2C(=O)[C@@H]([C@H](O)CC(=O)O)NC1=O [KUTZNERIDE 8]"
  measure unit: "µM"
  MIC: 230

[a] COC[C@@H]1NC(=O)[C@@H]2CCCNN2C(=O)[C@H](C(C)(C)C)OC(=O)[C@@H](C2(C)CC2)NC(=O)[C@@H]2C[C@@]3(O)c4ccc(Cl)c(Cl)c4N[C@H]3N2C(=O)[C@@H]([C@@H](O)CC(=O)O)NC1=O [KUTZNERIDE 1]
[b] COC[C@@H]1NC(=O)[C@@H]2C[C@@H](Cl)CNN2C(=O)[C@H](C(C)(C)C)OC(=O)[C@@H](C2(C)CC2)NC(=O)[C@@H]2C[C@@]3(O)c4ccc(Cl)c(Cl)c4N[C@H]3N2C(=O)[C@@H]([C@@H](O)CC(=O)O)NC1=O [KUTZNERIDE 2]
Hi! Which is lower in terms of MIC, the first one a or the second one b ? Respond using the label that marks the chosen record. b
